FYI, the data here is from patent US20240417484A1.

# Epitope listing for each entry below
Target: T1, human CD73-transfected HEK cells (Homo sapiens, UniProt P21589)
T1 construct: expressed in transfected cells; stably transfected in method 5.1)
T1 sequence (P21589 27-549): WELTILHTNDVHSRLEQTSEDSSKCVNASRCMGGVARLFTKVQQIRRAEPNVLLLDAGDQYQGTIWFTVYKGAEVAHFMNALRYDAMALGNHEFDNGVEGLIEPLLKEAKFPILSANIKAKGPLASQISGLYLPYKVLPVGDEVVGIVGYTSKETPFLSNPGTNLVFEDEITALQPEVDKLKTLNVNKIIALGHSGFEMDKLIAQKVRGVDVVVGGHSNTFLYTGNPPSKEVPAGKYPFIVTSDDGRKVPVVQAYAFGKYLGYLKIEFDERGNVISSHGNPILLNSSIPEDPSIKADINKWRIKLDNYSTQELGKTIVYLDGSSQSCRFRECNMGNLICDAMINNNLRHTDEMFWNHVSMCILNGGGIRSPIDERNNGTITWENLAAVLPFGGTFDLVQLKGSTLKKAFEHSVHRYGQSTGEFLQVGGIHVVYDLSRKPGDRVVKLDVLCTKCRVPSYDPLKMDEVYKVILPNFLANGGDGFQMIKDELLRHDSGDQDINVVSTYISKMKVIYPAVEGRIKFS
Experiment: Epitope binning by flow cytometry (human IgG hcAb blocks rabbit IgG hcAb)
Assay type: binding
Details: epitope assignment on human CD73 from binning
No unit in the answer, please; the number alone is enough.

[in] Give Epitope for SB143: CD73-specific alpaca VHH clone, family 4 in Tables 1-3, SEQ ID NO:69; tested as rabbit or human IgG hcAb (antibody, left off: a dimerising Fc or GST, tested as rabbit or human IgG hcAb) heavy: QVQLVESGGGLVQAGGSLRLSCAASGRTFSRSTMGWFRQAPGKERVFVAAIRWIGGTTTYGDSVKGRFTISVDNAKNTLYLQMNSLKPEDTAVYYCAATAGGPYYLGGRDILYDYWGQGTQVTVSS
[out] 1

New cases:
[in] Please indicate Epitope recorded for SB116: CD73-specific alpaca VHH clone, family 3, SEQ ID NO:81; tested as rabbit or human IgG hcAb (antibody, left off: a dimerising Fc or GST, tested as rabbit or human IgG hcAb) heavy: QVKLQESGGGRVQTGGSLRLSCAASGISFSITTMYWYRQAPGEQRQLVALITDRGNTYYVDSVKGRFTISRDDSKNTVYLQMNDLKPEDTAVYFCNSIPGNDWGQGTQVTVSS
[out] 1

[in] Consider the molecule SB141: CD73-specific alpaca VHH clone, family 2 in Tables 2-3, SEQ ID NO:72; tested as rabbit or human IgG hcAb (antibody, left off: a dimerising Fc or GST, tested as rabbit or human IgG hcAb) heavy: QVQLVESGGGLVQPGGSLRLSCAASGFTFINYHMSWLRQAPGKGLEWVSEIHSRGDITSYTNSVKGRFTISRDNAKNTLYLQMNSLKFDDTAVYYCARSRDLFNEGEYDYWGRGTQVTVSS and give its recorded Epitope.
[out] 2
